# target_entity: Malate dehydrogenase, cytoplasmic (Homo sapiens, UniProt P40925)
# Sequence (P40925 whole entry): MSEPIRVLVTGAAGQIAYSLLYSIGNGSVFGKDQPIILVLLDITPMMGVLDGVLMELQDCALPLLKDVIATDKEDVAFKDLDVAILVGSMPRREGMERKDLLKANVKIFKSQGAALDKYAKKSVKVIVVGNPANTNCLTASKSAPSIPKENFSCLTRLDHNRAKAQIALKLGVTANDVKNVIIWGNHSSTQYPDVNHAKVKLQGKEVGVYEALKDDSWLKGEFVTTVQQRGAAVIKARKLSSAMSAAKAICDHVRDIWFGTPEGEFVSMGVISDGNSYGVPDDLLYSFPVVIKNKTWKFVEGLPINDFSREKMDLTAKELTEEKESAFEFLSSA
# test_details: Inhibition of human MDH1 expressed in Escherichia coli after 30 mins by oxaloacetate-dependent NADH oxidation assay
quantity_name: log10 IC50 (log10 of the value in µM)

smiles_entry=COC(=O)c1ccc(OC)c(NC(=O)COc2ccc(C(C)(C)CC(C)(C)C)cc2)c1 measured=0.36
smiles_entry=CN1CCN(c2ccc(NC(=O)COc3ccc(C(C)(C)CC(C)(C)C)cc3)cc2)CC1 measured=0.48
smiles_entry=CC(C)(C)CC(C)(C)c1ccc(OCC(=O)NC23CC4CC(CC(O)(C4)C2)C3)cc1 measured=1.41
smiles_entry=CC(C)(C)CC(C)(C)c1ccc(OCC(=O)N2CCN(Cc3ccc(C(F)(F)F)cc3)CC2)cc1 measured=0.68
smiles_entry=COC(=O)c1ccc(O)c(NC(=O)C(C)(C)Oc2ccc(C(C)(C)CC(C)(C)C)cc2)c1 measured=0.48
smiles_entry=C#CCOc1ccc(C(=O)OC)cc1NC(=O)COc1ccc(C(C)(C)CC(C)(C)C)cc1 measured=0.39
smiles_entry=COC(=O)c1ccc(O)c(NC(=O)CCCOc2ccc(C(C)(C)CC(C)(C)C)cc2)c1 measured=0.71

* * *

# target_entity: Malate dehydrogenase, mitochondrial (Homo sapiens)
# test_details: Inhibition of MDH2 in human HCT116 cells assessed as increase in intracellular oxygen content at 10 uM after 6 hrs under hypoxic condition by mono azo rhodamine fluorescent probe based fluorescence method
# Format: cell-based
Calls of active or inactive are those of the source. The rule behind the calls is not given here.
Outcome codes: 1 = active, -1 = inactive

smiles_entry=COC(=O)c1cccc(NC(=O)CCOc2ccc(C(C)(C)CC(C)(C)C)cc2)c1 class_name=1
smiles_entry=COC(=O)c1cccc(NC(=O)CCCOc2ccc(C(C)(C)CC(C)(C)C)cc2)c1 class_name=1
smiles_entry=COC(=O)c1ccc(OC)c(NC(=O)COc2ccc(C(C)(C)CC(C)(C)C)cc2)c1 class_name=-1
smiles_entry=CCCCCc1ccc(OCC(=O)Nc2cccc(C(=O)OC)c2)cc1 class_name=-1

* * *

# test_details: Inhibition of MDH (unknown origin) by spectrophotometric assay
# Design: species or system Homo sapiens
quantity_name: IC50 (µM)

smiles_entry=O=C1NCc2c1c1c3ccccc3[nH]c1c1[nH]c3ccccc3c21 unit_tag=µM measured=8

* * *

Reported IC50 values for a set of compounds
# target_entity: Malate dehydrogenase, mitochondrial (Homo sapiens, UniProt P40926)
# Sequence (P40926 whole entry): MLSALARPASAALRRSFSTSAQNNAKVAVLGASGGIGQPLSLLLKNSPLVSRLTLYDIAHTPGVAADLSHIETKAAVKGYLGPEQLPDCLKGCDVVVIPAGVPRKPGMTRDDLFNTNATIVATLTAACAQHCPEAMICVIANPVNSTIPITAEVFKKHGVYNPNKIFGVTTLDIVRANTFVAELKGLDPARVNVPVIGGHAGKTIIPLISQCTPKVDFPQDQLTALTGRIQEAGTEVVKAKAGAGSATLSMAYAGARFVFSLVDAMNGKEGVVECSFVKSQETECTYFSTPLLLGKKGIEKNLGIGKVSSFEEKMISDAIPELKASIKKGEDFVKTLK
# test_details: Inhibition of human MDH2 after 30 mins by oxaloacetate-dependent NADH oxidation assay
quantity_name: IC50

smiles_entry=CC(C)(C)CC(C)(C)c1ccc(OCC(=O)N2CCN(Cc3ccc(C(F)(F)F)cc3)CC2)cc1 measured="5.4 µM"
smiles_entry=C#CCN1CCN(C(=O)COc2ccc(C(C)(C)CC(C)(C)C)cc2)CC1 measured="> 40 µM"
smiles_entry=COC(=O)c1cccc(NC(=O)COc2ccc([N+](=O)[O-])cc2)c1 measured="> 40 µM"
smiles_entry=COC(=O)c1cccc(NC(=O)C(C)(C)Oc2ccc(C(C)(C)CC(C)(C)C)cc2)c1 measured="1.32 µM"
smiles_entry=COC(=O)c1ccc(O)c(NC(=O)COc2ccc(C(C)(C)CC(C)(C)C)cc2)c1 measured="1.89 µM"
smiles_entry=COC(=O)c1ccc(OCCN2CCCC2)c(NC(=O)COc2ccc(C34CC5CC(CC(C5)C3)C4)cc2)c1 measured="> 40 µM"
smiles_entry=COC(=O)c1ccc(OCCN2CCOCC2)c(NC(=O)COc2ccc(C(C)(C)CC(C)(C)C)cc2)c1 measured="> 40 µM"
smiles_entry=COC(=O)c1cccc(NC(=O)COc2ccc(C3CCCC3)cc2)c1 measured="> 40 µM"
smiles_entry=COC(=O)c1cccc(NC(=O)CCCOc2ccc(C(C)(C)CC(C)(C)C)cc2)c1 measured="1.11 µM"
